The origin of these recorded values is patent US20240076370A1.

- SUBJECT OF TEST: T1, human G-protein coupled receptor family C group 5 member D (GPRC5D) (human, UniProt Q9NZD1 1-345)
- T1 construct: Overexpressed on 3T3 cells in the FACS assays; also called human GPRC5D; 3T3-GPRC5D
- ASSAY COMMENT: FACS, scFv phage clones on 3T3 cells overexpressing GPRC5D
TEST READOUT: binding result

BINDER	ENDPOINT VALUE
ET150-028 scFv (scFv, also called ET150-178 scFv) scFv: AELQPVLTQPPSASGTPGQRVTISCSGSSSNIGGNTVSWYQQVPGTAPRLLIFRNNQRPPGVPDRFSGSKSGTSASLAISGLRSEDEADYYCAAWDASRQGVFGGGTKLTVLGSRGGGGSGGGGSGGGGSLEMAQVQLVQSGAEVKKPGSSVKVSCKASGGTFRSYAITWVRQAPGQGLEWMGRIIPMLDITNYAQKFQGRVTITADKSTSTAYMELSSLRSEDTAVYYCARTYSRSPFHMEDFWGQGTLVTVSS	binds
ET150-161 scFv (scFv, also called ET150-11 scFv) scFv: SYVLTQPPSASGTPGQRVTISCSGSSSNIGSNTVNWYQQLPGTAPKLLIYRNNQRPSGVPDRFSGSKSGTSASLAISGLRSEDEADYYCAAWDDSLSGLFGTGTKVTVLGSRGGGGSGGGGSGGGGSLEMAQMQLVQSGAEVKKPGASVKVSCKASEYTFTRHILHWVRQAPGQSLEWMGWINPGNGNTKYSQKFQVRVTFTRDTSASTVYMELSSLRSEDTAVYYCARLPDQWGQGTLVTVSS	binds
ET150-160 scFv (scFv, also called ET150-10 scFv) scFv: QSALTQPASVSGSPGQSITISCTGTSSDVGGYNYVSWYQQHPGKAPKLMIYDVSKRPSGVSNRFSGSKSGNTASLTISGLQAEDEADYYCSSYTRSSTEVFGGGTKLTVLGSRGGGGSGGGGSGGGGSLEMAEVQLVQSGAEVKKPGASVKVSCKASGYTFTSYYMHWVRQAPGQGLEWMGIINPSGGSTSYAQKFQGRVTMTRDTSTSTVYMELSSLRSEDTAVYYCARGGSKKWSGEKWRRENFDYWGQGTLVTVSS	binds
